Molecular target: LAPTM4A_C23 (Homo sapiens, UniProt Q15012)
Construct: endogenous in cells; host or cells: 22Rv1
Experiment: IA-DTB cysteine engagement
Assay type: binding
Conditions: 22Rv1 cells, 20 μM probe, 1 h, relative to DMSO
# % engagement LAPTM4A_C23 listing for each entry below
reported property: % engagement LAPTM4A_C23 (%)

INSERT INTO measurements (molecule, test_value) VALUES
  ('C=CC(=O)N1C[C@H](c2ccc(Br)cc2)[C@H]1C(=O)Nc1cccc2cccnc12 [MY-3A]', 48),
  ('C=CC(=O)N1C[C@@H](c2ccc(Br)cc2)[C@H]1C(=O)Nc1cccc2cccnc12 [MY-1A]', 67),
  ('C=CC(=O)N1C[C@H](c2ccc(Br)cc2)[C@H]1C(=O)Nc1cccc2cccnc12 [MY-3B]', 72),
  ('C=CC(=O)N1C[C@H](c2ccc(Br)cc2)[C@@H]1C(=O)Nc1cccc2cccnc12 [MY-1B]', 54.5);

====

Target: RTN4_C1101 (Homo sapiens, UniProt Q9NQC3)
Construct: endogenous in cells; host or cells: 22Rv1
Sequence (Q9NQC3 1-1192): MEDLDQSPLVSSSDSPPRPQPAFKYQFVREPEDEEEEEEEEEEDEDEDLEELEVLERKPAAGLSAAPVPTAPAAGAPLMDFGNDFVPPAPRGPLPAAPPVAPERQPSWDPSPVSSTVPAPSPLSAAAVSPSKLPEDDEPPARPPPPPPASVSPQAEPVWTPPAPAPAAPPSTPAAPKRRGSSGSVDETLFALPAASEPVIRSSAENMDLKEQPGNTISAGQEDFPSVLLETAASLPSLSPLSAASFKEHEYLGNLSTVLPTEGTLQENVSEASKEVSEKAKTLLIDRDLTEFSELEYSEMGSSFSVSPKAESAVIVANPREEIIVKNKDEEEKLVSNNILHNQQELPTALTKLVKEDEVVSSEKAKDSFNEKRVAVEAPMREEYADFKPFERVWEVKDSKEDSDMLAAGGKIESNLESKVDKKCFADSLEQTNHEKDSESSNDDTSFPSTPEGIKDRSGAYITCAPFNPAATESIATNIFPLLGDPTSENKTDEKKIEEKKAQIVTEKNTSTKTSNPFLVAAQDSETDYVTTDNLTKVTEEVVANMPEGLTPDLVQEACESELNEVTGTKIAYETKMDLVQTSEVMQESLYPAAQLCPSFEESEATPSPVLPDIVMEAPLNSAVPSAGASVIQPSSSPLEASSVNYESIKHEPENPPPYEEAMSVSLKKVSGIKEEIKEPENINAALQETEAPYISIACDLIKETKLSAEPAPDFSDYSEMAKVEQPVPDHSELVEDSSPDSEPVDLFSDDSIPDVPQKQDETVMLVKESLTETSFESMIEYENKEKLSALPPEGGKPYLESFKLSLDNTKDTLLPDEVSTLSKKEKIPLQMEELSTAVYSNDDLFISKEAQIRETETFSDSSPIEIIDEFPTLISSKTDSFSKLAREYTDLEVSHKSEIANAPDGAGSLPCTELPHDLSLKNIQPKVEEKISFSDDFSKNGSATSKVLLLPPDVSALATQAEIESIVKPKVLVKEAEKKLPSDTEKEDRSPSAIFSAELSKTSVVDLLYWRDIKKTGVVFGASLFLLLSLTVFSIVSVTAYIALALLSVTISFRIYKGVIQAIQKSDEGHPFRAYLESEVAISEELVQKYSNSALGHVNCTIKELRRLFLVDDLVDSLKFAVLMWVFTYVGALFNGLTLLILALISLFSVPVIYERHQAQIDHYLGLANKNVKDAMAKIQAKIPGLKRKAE
Assay: IA-DTB cysteine engagement
Format: binding
Details: 22Rv1 cells, 20 μM probe, 1 h, relative to DMSO
reported property: % engagement RTN4_C1101

INSERT INTO results (compound, test_value) VALUES
  ('C=CC(=O)N1C[C@@H](c2ccc(Br)cc2)[C@H]1C(=O)Nc1cccc2cccnc12', '85%'),
  ('C=CC(=O)N1C[C@H](c2ccc(Br)cc2)[C@@H]1C(=O)Nc1cccc2cccnc12', '87.5%'),
  ('C=CC(=O)N1C[C@H](c2ccc(Br)cc2)[C@H]1C(=O)Nc1cccc2cccnc12 [MY-3A]', '91.5%'),
  ('C=CC(=O)N1C[C@H](c2ccc(Br)cc2)[C@H]1C(=O)Nc1cccc2cccnc12 [MY-3B]', '85%');
